Where do the numbers come from? From patent US20260317324A1.

Target: BRAF V600E (Homo sapiens, UniProt P15056, V600E)
Construct: endogenous C-terminal HiBiT fusion tag on BRAF V600E allele; endogenous in cells; host or cells: A375 clone 1F10 (CRISPR-Cas9 knock-in of the HiBiT tag; parental A375 from ATCC)
Sequence (P15056 whole entry V600E, the tested form may be a part): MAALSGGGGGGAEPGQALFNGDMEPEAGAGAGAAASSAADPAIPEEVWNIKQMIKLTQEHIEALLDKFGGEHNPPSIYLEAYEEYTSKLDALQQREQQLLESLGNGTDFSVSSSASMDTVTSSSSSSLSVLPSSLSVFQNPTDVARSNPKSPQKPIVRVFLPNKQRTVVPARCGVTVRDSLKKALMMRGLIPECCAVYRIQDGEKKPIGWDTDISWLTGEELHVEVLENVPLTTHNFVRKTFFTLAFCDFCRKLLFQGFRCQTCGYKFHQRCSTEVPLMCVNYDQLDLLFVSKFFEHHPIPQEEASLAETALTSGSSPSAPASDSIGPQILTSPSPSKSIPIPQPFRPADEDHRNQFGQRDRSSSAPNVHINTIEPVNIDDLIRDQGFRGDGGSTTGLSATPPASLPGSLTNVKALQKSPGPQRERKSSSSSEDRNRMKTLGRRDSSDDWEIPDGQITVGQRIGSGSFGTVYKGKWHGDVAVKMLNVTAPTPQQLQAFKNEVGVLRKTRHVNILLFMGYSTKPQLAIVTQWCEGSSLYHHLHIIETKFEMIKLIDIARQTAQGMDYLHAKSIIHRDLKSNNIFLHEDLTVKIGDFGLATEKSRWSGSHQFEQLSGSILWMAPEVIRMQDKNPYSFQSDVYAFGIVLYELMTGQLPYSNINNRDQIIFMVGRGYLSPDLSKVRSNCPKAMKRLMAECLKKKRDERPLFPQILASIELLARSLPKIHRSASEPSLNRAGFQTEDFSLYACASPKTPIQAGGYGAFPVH
Assay: BRAF HiBiT degradation assay, C-terminal HiBiT-tagged BRAF V600E A375 cells (clone 1F10), Nano-Glo HiBiT Lytic assay
Format: cell-based
Conditions: A-375; A375 (BRAF V600E); percentage protein degraded at maximal compound effect relative to DMSO
Exercise: state measured Dmax for each of the compounds provided.

Given the compound CCCS(=O)(=O)Nc1cccc(-c2nc(-c3ccc(C4CCN(CC5CCN(c6ccc(C7CCC(=O)NC7=O)cn6)CC5)CC4)cc3)sc2-c2ccnc(N)n2)c1F (racemic) [Compound 208] , write its reported Dmax. > 70%

Given the compound CCCS(=O)(=O)Nc1cccc(-c2cn(-c3ccc(OC4CCN(C(=O)C5CCN(c6ccc(C7CCC(=O)NC7=O)cn6)CC5)CC4)cc3)nc2-c2ccncc2)c1F (racemic) [Compound 5] , write its reported Dmax. 30 to 70%

Given the compound CCCS(=O)(=O)Nc1cccc(-c2nc(C(C)(C)C)sc2-c2ccnc(Nc3ccc(N4CCN(C(=O)C5CCN(c6ccc(C7CCC(=O)NC7=O)cc6)CC5)CC4)c(F)c3)n2)c1F (racemic) [Compound 65] , write its reported Dmax. > 70%

Given the compound CCCS(=O)(=O)Nc1cccc(-c2nc(C(C)(C)C)sc2-c2ccnc(Nc3ccc(N4CCN(CC5CCN(c6ccc([C@@H]7CCC(=O)NC7=O)cc6)CC5)CC4)c(F)c3)n2)c1F [Compound 88] , write its reported Dmax. 30 to 70%

Given the compound CCN(C)S(=O)(=O)Nc1cccc(-c2nc(C(C)(C)C)sc2-c2ccnc(Nc3ccc(N4CCN(C(=O)[C@H]5CC[C@H](CN6CCc7cc(C8CCC(=O)NC8=O)ccc7C6)CC5)CC4)cn3)n2)c1F (mixture of isomers) [Compound 125] , write its reported Dmax. > 70%

Given the compound CCCS(=O)(=O)Nc1cccc(-c2nc(C3CCC4(CC3)CCN(C(=O)CCCCCc3ccc5c(c3)C(=O)N(C3CCC(=O)NC3=O)C5)CC4)sc2-c2ccnc(N)n2)c1F (racemic) [Compound 235] , write its reported Dmax. > 70%

Given the compound CCN(C)S(=O)(=O)Nc1cccc(-c2nc(C(C)(C)C)sc2-c2ccnc(Nc3ccc(N4CCN(C(=O)C5CN(c6ccc(C7CCC(=O)NC7=O)cn6)C5)CC4)cn3)n2)c1F (racemic) [Compound 53] , write its reported Dmax. > 70%

Given the compound CCCS(=O)(=O)Nc1cccc(-c2cn(-c3ccc(N4CCN(CC5CCN(c6ccc([C@H]7CCC(=O)NC7=O)cc6)CC5)CC4)cc3)nc2-c2ccncc2)c1F [Compound 16] , write its reported Dmax. > 70%

Given the compound CCCS(=O)(=O)Nc1cccc(-c2nc(C3CCN(C(=O)C4CCN(CC5CCN(c6ccc(C7CCC(=O)NC7=O)cn6)CC5)CC4)CC3)sc2-c2ccncn2)c1F (racemic) [Compound 221] , write its reported Dmax. > 70%

Given the compound CCCS(=O)(=O)Nc1cccc(-c2nc(C3CCN(C(=O)C4(C)CCN(C(=O)C5CCN(c6ccc(C7CCC(=O)NC7=O)cc6)CC5)CC4)CC3)sc2-c2ccnc(NC(C)C)n2)c1F (racemic) [Compound 179] , write its reported Dmax. > 70%
